Entries and their measured IC50 follow.
Tested on: OPM2
Assay: Anti-proliferative effect (CellTiter-Glo, 72 h), OPM2
Type: cell-based
Conditions: Homo sapiens, OPM-2, 72 h, OPM2 cells, median, read-out: IC50 antiproliferation assay OPM2 [M] (median)
Counter-ions that a name gives are not always drawn.
The reply should be a number in M, with the unit left off.

Use the examples below as a reference point.
>>> result("CCc1c2c(nn1C)COCCCCn1c(C(=O)O)c(CCCOc3cccc4ccccc34)c3ccc(C)c-2c31 (racemic) [Example 153]")
"8.4e-06"
>>> result("CCOCc1nn(C)c2c1-c1cccc3c(CCCOc4cccc5ccccc45)c(C(=O)O)n(c13)CCCCOC2 (single isomer, unassigned; enantiomer 1)")
"2.04e-05"
>>> result("Cc1nn(C)c2c1-c1cccc3c(CCCOc4cccc5ccccc45)c(C(=O)O)n(c13)CCCCOCC2 (racemic)")
"2.78e-05"

Lab book: IC50 of COc1cc2cc(c1)-c1cccc3c(CCCOc4cccc5ccccc45)c(C(=O)O)n(c13)CCCCCO2 (racemic) noted as 2.77e-05

Lab book: IC50 of Cc1c2c(nn1CCN1CCOCC1)CN(C)CCCn1c(C(=O)O)c(CCCOc3cccc4ccccc34)c3cccc-2c31 (racemic) [Example 059] noted as 2.52e-05

Lab book: IC50 of CCS(=O)(=O)N1CCN(c2ccc(N3CCCn4c(C(=O)O)c(CCCOc5cccc6ccccc56)c5cccc(c54)-c4c(C)nn(C)c4C3)cc2)CC1 (single isomer, unassigned; enantiomer 1) noted as 8.14e-06

Lab book: IC50 of Cn1nc(COc2ccc(N3CCN(S(=O)(=O)C4CC4)CC3)cc2)c2c1COCCCCn1c(C(=O)O)c(CCCOc3cccc4ccccc34)c3cccc-2c31 (racemic) noted as 1.51e-06

Lab book: IC50 of Cn1nc(COc2ccc(N3CCN(CCC(C)(C)O)CC3)cc2)c2c1COCCCCn1c(C(=O)O)c(CCCOc3cccc4ccccc34)c3cccc-2c31 (racemic) [Example 1-121, Ammonium Salt] noted as 8.33e-06

Lab book: IC50 of Cc1nn(C)c2c1-c1cccc3c(CCCOc4cccc5ccccc45)c(C(=O)O)n(c13)CCCN(c1ccc(N3CCOCC3)cc1)C2 (single isomer, unassigned; enantiomer 1) noted as 1.98e-05

Lab book: IC50 of CC(C)c1c2c(nn1C)CN(C)CCCn1c(C(=O)O)c(CCCOc3cccc4ccccc34)c3cccc-2c31 (racemic) [Example 113] noted as 1.42e-05

Lab book: IC50 of CC(C)OCc1nn(C)c2c1-c1cccc3c(CCCOc4cccc5ccccc45)c(C(=O)O)n(c13)CCCCN(C)C2 (racemic) [Example 1-73] noted as 1.17e-05

Lab book: IC50 of COCc1c2c(nn1C)COCCCCn1c(C(=O)O)c(CCCOc3cccc4ccccc34)c3cccc-2c31 (single isomer, unassigned; enantiomer 2) noted as 4.37e-06
